- Method summary: Cmax associated with acute adverse effect in mouse at 25 to 150 mg/kg, ip
- Assay type: ADME, organism-based
- Measurement context: in vivo
Measurement name: Cmax
Answer with the figure and its unit, nothing else.

*Q* Fill in: Cmax of CCn1c(=O)c(-c2ccc(-n3cccc(C)c3=O)cc2Cl)cc2cnc(NC3COC3)nc21 is ___
*A* 41 µM

====

- Method summary: Plasma concentration in mouse at 25 mg/kg, po at 0.25 hrs
Measurement name: concentration at 0.25 h

*Q* Find the recorded concentration at 0.25 h belonging to CNc1ncc2cc(-c3ccc(-n4cccc(C)c4=O)cc3Cl)c(=O)n(CCC3(F)CN(C)C3)c2n1 and report it.
*A* 2240 nM

====

- Test system: MDR1
- Method summary: Permeability across apical to basolateral side in MDCK cells expressing MDR1
- Type: ADME, cell-based, Canis lupus familiaris
- Measurement context: dog, read-out: permeability
Measurement name: Papp A→B (×10⁻⁶ cm/s)
Number in ×10⁻⁶ cm/s, nothing else.

*Q* Find Papp A→B (MDR1) for the entry CNc1ncc2cc(-c3ccc(-c4cccc(C)n4)cc3Cl)c(=O)n(C[C@H]3OC[C@H](N)CO3)c2n1
*A* 0.3

====

- Method summary: Cmax associated with acute adverse effect in mouse at 50 mg/kg, ip
- Format: ADME, organism-based
- Parameters: dose 50 mg/kg, route intraperitoneal
- Measurement context: in vivo
Let's look at some compounds and their measured Cmax.
The figure you give is taken to be in µM; do not add the unit.

*Q* Fill in the blank: the reported Cmax of N[C@H]1CC[C@H](CNc2nccc(Nc3cc(C(F)(F)F)ccn3)n2)CC1 is ____.
*A* 26

---
*Q* Quick one: Cmax of Cc1nc(Nc2n[nH]c3c2CN(C(=O)N[C@H](CN(C)C)c2ccccc2)C3(C)C)c2sccc2n1 ?
*A* 10

====

- Method summary: Fraction unbound in mouse plasma at 100 to 200 mg/kg, ip
- Format: ADME, organism-based
Measurement name: fraction unbound
Output spec: single numeric token, no unit.

*Q* Return reported fraction unbound; argument: Cc1cncc(-c2ccc(-c3cc4cncnc4n(C[C@H]4CC[C@H](N)CC4)c3=O)c(Cl)c2)n1
*A* 0.104

====

- Method summary: Cmax associated with acute adverse effect in mouse at 25 to 50 mg/kg, po
- Assay type: ADME, organism-based
- Measurement context: in vivo
Measurement name: Cmax (µM)
Record the value in µM, omitting the unit from your answer.

*Q* Please look up its Cmax: CNc1ncc2cc(-c3ccc(-n4cncc(C)c4=O)cc3Cl)c(=O)n(CCOC)c2n1
*A* 14

====

- Organism: Homo sapiens
- Method summary: Selectivity for human recombinant N-terminal 6-His-tagged PAK1 kinase domain (249 to 545 residues) over human recombinant PAK4 kinase domain
Listing of entries alongside the reported Selectivity ratio.

These solved cases illustrate the format of a correct answer.
*Q* Need Selectivity ratio, item CNc1ncc2cc(-c3ccc(N4CCN(C)C4=O)cc3Cl)c(=O)n(CCCN)c2n1
*A* > 52

*Q* Entry CNc1ncc2cc(-c3ccc(-n4cncc(C)c4=O)cc3Cl)c(=O)n(CCCN)c2n1 : reported Selectivity ratio = ?
*A* > 443

*Q* // Selectivity ratio lookup, key: CNc1ncc2cc(-c3ccccc3Cl)c(=O)n(CCCN)c2n1
*A* > 7.6

*Q* # lookup: Selectivity ratio of CNc1ncc2cc(-c3ccc(-c4cccc(C)n4)cc3Cl)c(=O)n(CCCN)c2n1
*A* 449

*Q* Quick one: Selectivity ratio of CNc1ncc2cc(-c3ccc(-n4ccnc(C)c4=O)cc3Cl)c(=O)n(CCCN)c2n1 ?
*A* > 642

*Q* Quick check: Selectivity ratio of CNc1ncc2cc(-c3ccc(-n4ccccc4=O)cc3Cl)c(=O)n(CCCN)c2n1 ?
*A* > 82

More entries:
*Q* Which Selectivity ratio value belongs to CNc1ncc2cc(-c3ccc(N4CCCC4=O)cc3Cl)c(=O)n(CCCN)c2n1 ?
*A* > 33

*Q* Selectivity ratio lookup needed for CNc1ncc2cc(-c3ccc(-n4cccc(C)c4=O)cc3Cl)c(=O)n(CCCN)c2n1 , thanks.
*A* 517

*Q* Record request: Selectivity ratio value, item CNc1ncc2cc(-c3ccc(-n4ccn(C)c4=O)cc3Cl)c(=O)n(CCCN)c2n1
*A* > 232

====

- Method summary: Fraction unbound in mouse plasma at 60 to 80 mg/kg, po
- Assay type: ADME, organism-based
Measurement name: fraction unbound

*Q* Requested field: fraction unbound. Item: CCn1c(=O)c(-c2ccc(-c3cncc(C)n3)cc2Cl)cc2cnc(NCCC3CCN(C)CC3)nc21
*A* 0.017

====

- Method summary: Cmax associated with acute adverse effect in mouse at 50 to 100 mg/kg, ip
- Type: ADME, organism-based
- Measurement context: in vivo
Measurement name: Cmax (µM)
Number only, in µM; omit the unit.

*Q* Value lookup for Cmax; key = Cc1nccn(-c2ccc(-c3cc4cnc(NC5COC5)nc4n(CC4CCNCC4(F)F)c3=O)c(Cl)c2)c1=O (single isomer, unassigned)
*A* 12

====

- Method summary: Fraction unbound in mouse plasma at 50 mg/kg, ip
- Assay type: ADME, organism-based
Measurement name: fraction unbound
Answer field: number only, no words.

*Q* Which measured fraction unbound value corresponds to Cc1nc(Nc2n[nH]c3c2CN(C(=O)N[C@H](CN(C)C)c2ccccc2)C3(C)C)c2sccc2n1 ?
*A* 0.163

====

- Method summary: Fraction unbound in mouse plasma at 25 to 150 mg/kg, ip
- Assay type: ADME, organism-based
Measurement name: fraction unbound
// return a plain number; no unit text

*Q* Recorded fraction unbound of CCn1c(=O)c(-c2ccc(-n3cccc(C)c3=O)cc2Cl)cc2cnc(NC3COC3)nc21 , please.
*A* 0.006

====

Overview of recorded efflux ratio at 1 h, 10 µM for various molecules
- Method summary: Efflux ratio of permeability across basolateral to apical side over apical to basolateral side in MDCK cells at 10 uM after 60 mins
- Format: ADME, cell-based, Canis lupus familiaris
- Measurement context: dog
Please reply with the number alone, leaving off any unit.

Example molecules with recorded efflux ratio at 1 h, 10 µM:
*Q* Using the record for CNc1ncc2cc(-c3ccc(-n4cccc(C)c4=O)cc3Cl)c(=O)n(CCOC3CN(C)C3)c2n1 , report its efflux ratio at 1 h, 10 µM.
*A* 26

*Q* So what does the record say about efflux ratio at 1 h, 10 µM for CNc1ncc2cc(-c3ccc(-n4cccc(C)c4=O)cc3Cl)c(=O)n(CCO)c2n1 ?
*A* 2.8

*Q* // lookup efflux ratio at 1 h, 10 µM for CNc1ncc2cc(-c3ccc(-n4cccc(C)c4=O)cc3Cl)c(=O)n(CC(F)(F)CN)c2n1
*A* 1.8

*Q* Bench note: what efflux ratio at 1 h, 10 µM did CNc1ncc2cc(-c3ccc(-n4cccc(C)c4=O)cc3Cl)c(=O)n(CCC3(F)CN(C)C3)c2n1 show?
*A* 2

*Q* Return reported efflux ratio at 1 h, 10 µM; argument: CNc1ncc2cc(-c3ccc(-n4cccc(C)c4=O)cc3Cl)c(=O)n(CCCN)c2n1
*A* 4.3

*Q* Form field: reported efflux ratio at 1 h, 10 µM of CNc1ncc2cc(-c3ccc(-n4cccc(C)c4=O)cc3Cl)c(=O)n(CC3CCNCC3(F)F)c2n1 (racemic)
*A* 1.3

*Q* Tell me the measured efflux ratio at 1 h, 10 µM of CCn1c(=O)c(-c2ccc(-n3cccc(C)c3=O)cc2Cl)cc2cnc(NC3COC3)nc21 , please.
*A* 0.4

*Q* # efflux ratio at 1 h, 10 µM lookup, item CCn1c(=O)c(-c2ccc(-n3cccc(C)c3=O)cc2Cl)cc2cnc(NC)nc21
*A* 0.4

***
*Q* Which value of efflux ratio at 1 h, 10 µM has been reported for COCCn1c(=O)c(-c2ccc(-n3cccc(C)c3=O)cc2Cl)cc2cnc(NC3COC3)nc21 in the records?
*A* 2

*Q* Need efflux ratio at 1 h, 10 µM, item CNc1ncc2cc(-c3ccc(-n4cccc(C)c4=O)cc3Cl)c(=O)n(CCOC)c2n1
*A* 0.5

====

- Method summary: Cmax associated with acute adverse effect in mouse at 30 to 60 mg/kg, po
- Assay type: ADME, organism-based
- Measurement context: in vivo
Measurement name: Cmax (µM)
The reply should contain only the number, in µM.

*Q* What value of measured Cmax is listed for CNc1ncc2cc(-c3ccc(-c4cccc(C)n4)cc3Cl)c(=O)n(C[C@H]3OC[C@H](N)CO3)c2n1 ?
*A* 55
